Every entry's value here was drawn from patent US8119675B2.

Can you tell me IC50 for the items I'm about to list?
experimental.system: SGLT2 (Homo sapiens)
protocol.description: 14C-AMG uptake in BHK cells transfected with SGLT2 (96-well cell-based assay)
applied.conditions: 2 mM AMG, 37° C., 90 min

Completed entries (count: 2):
Cc1ccc(-c2nc3ccccc3n2Cc2c(C)cccc2C)c(OCC(N)=O)c1
0.01 to 1 µM
Cc1cccc(C)c1Cn1c(-c2ccccc2OC(CO)C(N)=O)nc2ccccc21 (stereo not shown)
> 10 µM

Below are some compounds; for each one, tell me its IC50.
1. Cc1cccc(C)c1Cn1c(-c2ccccc2OCC(N)=O)nc2ccc(F)c(F)c21
2. Cc1cccc(C)c1Cn1c(-c2ncccc2OCC(N)=O)nc2ccccc21

1. 1 to 10 µM
2. > 10 µM

====

experimental.system: SGLT2 (Homo sapiens)
Construct: expressed in transfected cells
protocol.description: 14C-AMG uptake in BHK cells transfected with SGLT2 (96-well cell-based assay)
applied.conditions: 2 mM AMG, 37° C., 90 min
test.readout: IC50

NC(=O)COc1ccccc1-c1nc2ccccc2n1Cc1ccccc1
> 10000 nM

// batch mode: one IC50 value per listed entry
1. COc1cc(C)c(-c2nc3ccc(F)cc3n2Cc2c(C)cccc2C)c(OCC(N)=O)c1
2. Cc1cccc(C)c1Cn1c(-c2ccccc2OCC(N)=O)nc2ccccc21
3. COc1cccc(-c2nc3ccccc3n2Cc2c(C)cccc2C)c1OCC(N)=O
4. Cc1cccc(C)c1Cn1c(-c2ccccc2OC2CCNC2=O)nc2ccccc21 (centres unmarked)

1. 10 to 1000 nM
2. 10 to 1000 nM
3. 1000 to 10000 nM
4. 1000 to 10000 nM

====

experimental.system: SGLT2 (Homo sapiens, UniProt P31639)
Sequence (P31639 whole entry): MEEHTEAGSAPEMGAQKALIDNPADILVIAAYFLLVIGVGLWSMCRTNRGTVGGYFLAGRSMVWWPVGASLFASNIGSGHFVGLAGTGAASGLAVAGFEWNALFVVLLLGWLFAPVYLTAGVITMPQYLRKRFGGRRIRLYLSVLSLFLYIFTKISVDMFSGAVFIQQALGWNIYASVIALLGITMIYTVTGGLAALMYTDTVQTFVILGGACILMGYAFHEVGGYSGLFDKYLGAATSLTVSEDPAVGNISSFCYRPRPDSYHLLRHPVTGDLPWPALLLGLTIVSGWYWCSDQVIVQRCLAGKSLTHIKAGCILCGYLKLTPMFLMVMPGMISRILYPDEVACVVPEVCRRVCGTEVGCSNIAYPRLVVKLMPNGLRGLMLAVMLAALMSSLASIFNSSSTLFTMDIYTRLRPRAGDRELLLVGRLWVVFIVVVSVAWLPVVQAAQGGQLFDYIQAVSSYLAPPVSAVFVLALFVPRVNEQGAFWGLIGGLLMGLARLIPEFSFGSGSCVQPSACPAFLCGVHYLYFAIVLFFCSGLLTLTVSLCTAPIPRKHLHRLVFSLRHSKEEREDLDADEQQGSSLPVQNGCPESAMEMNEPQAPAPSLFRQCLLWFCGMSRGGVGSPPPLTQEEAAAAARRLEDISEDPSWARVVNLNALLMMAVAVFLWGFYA
protocol.description: 14C-AMG uptake in BHK cells transfected with SGLT2 (96-well cell-based assay)
applied.conditions: 2 mM AMG, 37° C., 90 min
pIC50: −log10 of the molar value.
Please respond with reported pIC50 for every item in the list.

Reference set, count: 2
COc1cc(C)c(-c2nc3ccc(F)c(F)c3n2Cc2c(C)cccc2C)c(OCC(N)=O)c1
6.00 to 8.00
Cc1cc(C)c(Cn2c(-c3ccccc3OCC(N)=O)nc3ccc(F)cc32)c(C)c1
< 5.00

Please report pIC50 for every entry that follows.
1. Cc1cccc(Cl)c1Cn1c(-c2ccccc2OCC(N)=O)nc2ccccc21
2. NC(=O)COc1ccccc1-c1nc2cc(Cl)ccc2n1Cc1c(Cl)cccc1Cl
3. NC(=O)COc1ccccc1-c1nc2cc(F)ccc2n1Cc1c(Cl)cccc1Cl
4. Cc1cccc(C)c1Cn1c(-c2ccccc2OCC(N)=O)nc2cccc(Cl)c21

1: 5.00 to 6.00; 2: < 5.00; 3: 5.00 to 6.00; 4: 6.00 to 8.00

// for each compound in input: emit pIC50
1. Cc1ccccc1Cn1c(-c2ccccc2OCC(N)=O)nc2ccccc21
2. Cc1cccc(C)c1Cn1c(-c2ccccc2OCC(N)=O)nc2cc(F)c(F)cc21

1: 5.00 to 6.00; 2: 6.00 to 8.00

====

Exercise: for every item that follows, state its recorded pIC50.
experimental.system: SGLT2 (Homo sapiens)
protocol.description: 14C-AMG uptake in BHK cells transfected with SGLT2 (96-well cell-based assay)
applied.conditions: 2 mM AMG, 37° C., 90 min
pIC50: −log10 of the molar value.

Worked set:
COc1ccc(-c2nc3ccccc3n2Cc2c(C)cccc2C)c(OCC(N)=O)c1
5.00 to 6.00
CNc1nnc(-c2ccccc2-c2nc3ccccc3n2Cc2c(C)cccc2C)o1
6.00 to 8.00
Cc1cccc(C)c1Cn1c(-c2c(F)cccc2OCC(N)=O)nc2ccccc21
6.00 to 8.00

Given `Cc1cccc(C)c1C(=O)n1c(-c2ccccc2OCC(N)=O)nc2ccccc21` , state its recorded pIC50.
< 5.00
